# Test system: human lung cancer strain NCI-H441
# Type: cell-based
Where a SMILES comes first, the peptide text is derived from it. Bridges are numbered along the chain shown (N, C = ends). [ ]: non-standard residue; d: D form. The star is where a group is joined. hPhe(3-Cl-4-CF3) = N[C@@H](CCc1ccc(C(F)(F)F)c(Cl)c1)C(=O)O; NPrPhe(4-CF3) = CCCN[C@@H](Cc1ccc(C(F)(F)F)cc1)C(=O)O; NMeGly(cPent) = CN[C@H](C(=O)O)C1CCCC1; NMeD = CN[C@@H](CC(=O)O)C(=O)O; NMeL = CN[C@@H](CC(C)C)C(=O)O; Oxazolidin(3-yl) = C1CN(*)CO1; NMeA = CN[C@@H](C)C(=O)O; Ac5c = NC1(C(=O)O)CCCC1; Aze = O=C(O)[C@@H]1CCN1; Sar = CNCC(=O)O
Measurement Kind: IC50 (nM)

1. CCCN1C(=O)[C@@H]2CCN2C(=O)[C@H](C)N(C)C(=O)[C@H]([C@@H](C)CC)NC(=O)[C@H](CC(C)C)N(C)C(=O)C[C@@H](C(=O)N2CCOC2)N(C)C(=O)[C@H](C2CCCC2)N(C)C(=O)C2(CCCC2)NC(=O)[C@@H]2CCCN2C(=O)[C@H](CCc2ccc(C(F)(F)F)c(Cl)c2)NC(=O)CN(C)C(=O)[C@@H]1Cc1ccc(C(F)(F)F)cc1 [PP0183] ([NMeL]I[NMeA][Aze][NPrPhe(4-CF3)][Sar][hPhe(3-Cl-4-CF3)]P[Ac5c][NMeGly(cPent)][NMeD]-{Oxazolidin(3-yl)}; lactam N-11) :: 1.6
2. CCO[C@@H]1C[C@H]2C(=O)NC3(CC(C)(C)C3)C(=O)N(C)[C@@H](C3CCCC3)C(=O)N(C)[C@H](C(=O)N(C)CC)CC(=O)N(C)[C@@H](CC(C)C)C(=O)N[C@@H]([C@@H](C)CC)C(=O)N(C)CC(=O)N(C)[C@H]3C/C=C\CCN(C3=O)[C@@H](Cc3ccc(C(F)F)cc3)C(=O)N(C)CC(=O)N[C@@H](CCc3cc(C)c(C(F)F)c(Cl)c3)C(=O)N2C1 [PP3146] :: 41.8
3. CC[C@H](C)[C@@H]1NC(=O)[C@H](C)N(C)C(=O)C[C@@H](C(=O)N(C)C)N(C)C(=O)[C@H](C2CCCC2)N(C)C(=O)C2(CCCC2)NC(=O)[C@@H]2CC(F)(F)CN2C(=O)[C@H](CCc2cc(F)c(C(F)(F)F)c(F)c2)NC(=O)CN(C)C(=O)[C@H](Cc2ccc(C(F)(F)F)cc2)N2CCCC[C@@H](C2=O)N(C)C(=O)CN(C)C1=O [PP0583] :: 10.3

---

# Assayed Target: GDP-bound KRAS wild-type protein (Homo sapiens)
# Protocol: Binding to KRAS by surface plasmon resonance (SPR), dissociation constant KD
# Experimental Parameters: Single Cycle Kinetics, 1:1 binding model
// reported Kd for each item listed
Measurement Kind: Kd (nM)

1. CCO[C@@H]1C[C@H]2C(=O)NC3(CCC3)C(=O)N(C)[C@@H](C3CCCC3)C(=O)N(C)[C@H](C(=O)N3CCOCC3)CC(=O)N(C)[C@@H](CC3CCCC3)C(=O)N[C@@H]([C@@H](C)CC)C(=O)N(C)CC(=O)N(C)[C@H]3CCCCCN(C3=O)[C@@H](Cc3ccc(C(F)(F)F)cc3)C(=O)N(C)CC(=O)N[C@@H](CCc3cc(F)c(C(F)(F)F)c(F)c3)C(=O)N2C1 :: 0.8
2. CCO[C@@H]1C[C@H]2C(=O)NC3(CCC3)C(=O)N(C)[C@@H](C3CCCC3)C(=O)N(C)[C@H](C(=O)N3CCCC3)CC(=O)N(C)[C@@H](CC(F)F)C(=O)N[C@@H]([C@@H](C)CC)C(=O)N(C)CC(=O)N(C)[C@H]3C/C=C\CCN(C3=O)[C@@H](Cc3ccc(C(F)(F)F)cc3)C(=O)N(C)CC(=O)N[C@@H](CCc3cc(F)c(C(F)(F)F)c(F)c3)C(=O)N2C1 :: 0.13
3. CCCOC[C@H]1C(=O)N[C@@H]([C@@H](C)CC)C(=O)N(C)CC(=O)N(C)[C@H]2C/C=C\CCN(C2=O)[C@@H](Cc2ccc(C(F)(F)F)cc2)C(=O)N(C)CC(=O)N[C@@H](CCc2ccc(C(F)(F)F)c(OC)c2)C(=O)N2C[C@@H](C)C[C@H]2C(=O)NC2(CC(C)(C)C2)C(=O)N(C)[C@@H](C2CCCC2)C(=O)N(C)[C@H](C(=O)N(C)C)CC(=O)N1C :: 0.098

---

# Assayed Target: GDP-bound KRAS wild-type protein (Homo sapiens)
# Protocol: Binding to KRAS by surface plasmon resonance (SPR), dissociation constant KD
# Experimental Parameters: Single Cycle Kinetics
Measurement Kind: Kd

1. CCC[C@H]1C(=O)N[C@@H]([C@@H](C)CC)C(=O)N(C2CC2)CC(=O)N(C)[C@H]2C/C=C\CCN(C2=O)[C@@H](Cc2ccc(C(F)(F)F)cc2)C(=O)N(C)CC(=O)N[C@@H](CCc2ccc(C(F)(F)F)c(OC)c2)C(=O)N2CC[C@H](OC)[C@H]2C(=O)N(C)C2(CCC2)C(=O)N(C)[C@@H](C2CCCC2)C(=O)N(C)[C@H](C(=O)N(C)C)CC(=O)N1C :: 0.23 nM
2. CCO[C@@H]1C[C@H]2C(=O)NC3(CC(C)(C)C3)C(=O)N(C)[C@@H](C3CCCC3)C(=O)N(C)[C@H](C(=O)N(C)CC)CC(=O)N(C)[C@@H]([C@H](C)OC)C(=O)N[C@@H]([C@@H](C)CC)C(=O)N3CCC[C@H]3C(=O)N(C)[C@H]3C/C=C\CCN(C3=O)[C@@H](Cc3ccc(C(F)(F)F)cc3)C(=O)N(C)CC(=O)N[C@@H](CCc3ccc(C(F)(F)F)c(Cl)c3)C(=O)N2C1 :: 1.9 nM

---

# Test system: human colorectal cancer strain GP2d
# Type: cell-based
pIC50: −log10 of the molar value.
Measurement Kind: pIC50

1) C#CC[C@H]1C(=O)N[C@@H]([C@@H](C)CC)C(=O)N(C)CC(=O)N(C)[C@H]2C/C=C\CCN(C2=O)[C@@H](Cc2ccc(C)cc2)C(=O)N(C)CC(=O)N[C@@H](CCc2cc(F)c(C(F)(F)F)c(F)c2)C(=O)N2C[C@H](OCC)C[C@H]2C(=O)N(C)C2(CCC2)C(=O)N(C)[C@@H](C2CCCC2)C(=O)N(C)[C@H](C(=O)N(C)C)CC(=O)N1C [PP3238] :: 8.82
2) CCC(CC)[C@H]1C(=O)N(C)[C@H](C(=O)N(C)C)CC(=O)N(C)[C@@H](COC)C(=O)N[C@@H]([C@@H](C)CC)C(=O)N(C)CC(=O)N(C)[C@H]2C/C=C\CCN(C2=O)[C@@H](Cc2ccc(C)cc2)C(=O)N(C)CC(=O)N[C@@H](CCc2ccc(C(F)(F)F)c(Cl)c2)C(=O)N2CC3(CC3)C[C@H]2C(=O)NC2(CC(C)(C)C2)C(=O)N1C [PP2967] :: 7.57
3) C#CC[C@H]1C(=O)N[C@@H]([C@@H](C)CC)C(=O)N(C)CC(=O)N(C)[C@H]2C/C=C\CCN(C2=O)[C@@H](Cc2ccc(C(F)(F)F)cc2)C(=O)N(C)CC(=O)N[C@@H](CCc2ccc(C(F)(F)F)c(Cl)c2)C(=O)N2C[C@H](OCC)C[C@H]2C(=O)N(C)C2(CCC2)C(=O)N(C)[C@@H](C2CCCC2)C(=O)N(C)[C@H](C(=O)N(C)C)CC(=O)N1C [PP3234] :: 8.96
4) CCC[C@H]1C(=O)N[C@@H]([C@@H](C)CC)C(=O)N(C)CC(=O)N(C)[C@H]2C/C=C\CCN(C2=O)[C@@H](Cc2ccc(C(F)(F)F)cc2)C(=O)N(C)CC(=O)N[C@@H](CCc2cc(F)c(C(F)(F)F)c(F)c2)C(=O)N2CC3(CC3)C[C@H]2C(=O)N(C)C2(CCC2)C(=O)N(C)[C@@H](C2CCCC2)C(=O)N(C)[C@H](C(=O)N(C)C)CC(=O)N1C [PP3356] :: 8.82

---

As shown below, each of these compounds has a reported pKd value.
# Assayed Target: GDP-bound KRAS wild-type protein (Homo sapiens, UniProt P01116)
# Sequence (P01116 1-188 isoform P01116-2): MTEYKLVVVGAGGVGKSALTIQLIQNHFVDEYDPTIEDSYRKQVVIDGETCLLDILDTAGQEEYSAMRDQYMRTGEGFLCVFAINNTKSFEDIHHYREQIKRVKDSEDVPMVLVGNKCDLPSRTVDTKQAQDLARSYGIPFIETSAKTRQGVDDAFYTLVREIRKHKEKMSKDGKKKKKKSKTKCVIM
# Protocol: Binding to KRAS by surface plasmon resonance (SPR), dissociation constant KD
# Experimental Parameters: 1:1 binding model
pKd: −log10 of the molar value.
Measurement Kind: pKd

1. CCCOC[C@H]1C(=O)N[C@@H]([C@@H](C)CC)C(=O)N(C)CC(=O)N(C)[C@H]2C/C=C\CCN(C2=O)[C@@H](CC2CCC(F)(F)CC2)C(=O)N(C)CC(=O)N[C@@H](CCc2cc(F)c(C(F)(F)F)c(F)c2)C(=O)N2C[C@@H](C)C[C@H]2C(=O)NC2(CC(C)(C)C2)C(=O)N(C)[C@@H](C(CC)CC)C(=O)N(C)[C@H](C(=O)N(C)C)CC(=O)N1C [PP2490] :: 8.77
2. C#CC[C@H]1C(=O)N[C@@H]([C@@H](C)CC)C(=O)N(C)CC(=O)N(C)[C@H]2C/C=C\CCN(C2=O)[C@@H](Cc2ccc(C(F)(F)F)cc2)C(=O)N(C)CC(=O)N[C@@H](CCc2ccc(C(F)(F)F)c(OC)c2)C(=O)N2C[C@H](OCC)C[C@H]2C(=O)NC2(CCCC2)C(=O)N(C)[C@@H](C2CCC2)C(=O)N(C)[C@H](C(=O)N2CCCCC2)CC(=O)N1C [PP3131] :: 8.55
